target_entity: Tyrosyl-tRNA synthetase, putative (Trypanosoma cruzi (strain CL Brener))
experimental_protocol: Trypanosoma cruzi tyrosyl tRNA synthetase (TcYRS) _High Tyrosine SOP
Assay type: functional
Parameters: scale not given: in the data most compounds retested in dose-response had high values
condition_set: 30 µM
# Percent Effect per entry
property_name: Percent Effect (%)

>>> measured_result("Cc1cccc(CS(=O)(=O)CC(=O)NCCCOC(C)C)c1")
7.77
>>> measured_result("Cc1cc2c(=O)n3c(nc2s1)CCN(Cc1cnn(C)c1C)CC3")
5.38
>>> measured_result("O=C(CO)N1CCc2onc(Cn3cccn3)c2C1")
2.63

###

target_entity: Tyrosyl-tRNA synthetase, putative (Trypanosoma cruzi (strain CL Brener)) (UniProt Q4DSP6)
Sequence (Q4DSP6 as listed by the source): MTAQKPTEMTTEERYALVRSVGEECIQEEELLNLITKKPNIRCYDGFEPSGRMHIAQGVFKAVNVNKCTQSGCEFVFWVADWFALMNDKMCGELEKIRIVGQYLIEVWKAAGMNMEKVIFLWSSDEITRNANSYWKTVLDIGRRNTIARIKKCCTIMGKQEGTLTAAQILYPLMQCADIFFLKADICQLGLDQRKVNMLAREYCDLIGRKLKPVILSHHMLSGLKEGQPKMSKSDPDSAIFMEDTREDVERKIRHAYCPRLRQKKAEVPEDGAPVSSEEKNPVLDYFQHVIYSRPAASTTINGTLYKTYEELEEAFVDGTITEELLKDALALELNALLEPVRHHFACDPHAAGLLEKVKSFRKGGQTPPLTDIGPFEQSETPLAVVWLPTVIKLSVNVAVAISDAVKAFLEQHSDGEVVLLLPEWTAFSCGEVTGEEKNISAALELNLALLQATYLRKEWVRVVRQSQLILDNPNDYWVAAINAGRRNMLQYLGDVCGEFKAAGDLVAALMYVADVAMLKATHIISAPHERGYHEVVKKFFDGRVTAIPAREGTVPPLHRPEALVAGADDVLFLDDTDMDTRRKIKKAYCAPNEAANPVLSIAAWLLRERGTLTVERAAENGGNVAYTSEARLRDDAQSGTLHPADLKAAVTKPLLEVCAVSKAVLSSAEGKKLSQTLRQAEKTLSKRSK
experimental_protocol: Trypanosoma cruzi tyrosyl tRNA synthetase (TcYRS) _High Tyrosine SOP
Format: functional
Set-up: scale not given: in the data most compounds retested in dose-response had high values
condition_set: 30 µM
property_name: Percent Effect (%)

>>> measured_result("c1cnn(CC2CCCN2Cc2nc(-c3ccoc3)no2)c1 (centres undefined)")
4.74
>>> measured_result("Clc1snnc1CN1CCOC(CNc2cccnn2)C1 (centres undefined)")
4.85
>>> measured_result("CNS(=O)(=O)c1cc(C(=O)NC2CCOc3ccccc32)cc(C)c1C (centres undefined)")
4.25
>>> measured_result("CC(=O)NCCNC(=O)c1sc(-c2ccc(Cl)s2)nc1C")
0.99
>>> measured_result("Cc1ccc(NC(=O)C2CSCN2C(=O)c2cc[nH]n2)c(C)c1 (centres undefined)")
3.35
>>> measured_result("Cc1cnc2n(c1=O)CC(C(=O)NC1CC1)CS2 (centres undefined)")
2.15
>>> measured_result("Cc1nccc(-c2cccc(NCC(=O)N3CCCCCCC3)c2)n1")
2.46
>>> measured_result("CC(C)c1cc(C(=O)NCCN2CCCS2(=O)=O)n[nH]1")
-4.31
>>> measured_result("CC(C)(C)n1ncc2c1NC(=O)CC2c1ccccc1 (centres undefined)")
3.72
>>> measured_result("Cc1cc(CN2Cc3ccccc3CC2c2nnc(C)o2)on1 (centres undefined)")
6.67
>>> measured_result("O=C(CN1CC(n2cccn2)C1)NCCCc1ccccc1")
1.98
>>> measured_result("Cc1ccc(F)cc1S(=O)(=O)N(C)CC(N)=O")
9.38
>>> measured_result("O=C(c1ccncc1)N1CCC2(CC1)CC(Oc1cccnc1)CO2 (centres undefined)")
3.68
>>> measured_result("CN1CC[C@H](c2ccccc2)[C@@H]2[C@H]1CCCCN2C(=O)c1cnccn1")
4.3
>>> measured_result("O=C(COc1coc(CN2CCCCC2)cc1=O)Nc1ccccc1Cl")
10.6
>>> measured_result("O=C(Cc1ccccc1Cl)N1CCCC(n2cncn2)C1 (centres undefined)")
2.39
>>> measured_result("Cc1csc(C2CCCN(C(=O)c3cnc4n[nH]c(C)c4c3)C2)n1 (centres undefined)")
7.39
>>> measured_result("Cc1cc(N2CCC(Cc3ccccc3)CC2)nc(-c2ccncc2)n1")
18.6
>>> measured_result("CS(=O)(=O)NCC1CCCN(C(=O)c2ccc(Cl)o2)C1 (centres undefined)")
4.9
